Data provenance is patent US11220504B2.

measured_on: human TLR7 (Homo sapiens, UniProt Q9NYK1)
Construct: expressed in transfected cells; host or cells: HEK293 cells, transient transfection with CMV-TLR7 plasmid and NFκB-luc plasmid
Sequence (Q9NYK1 27-1049): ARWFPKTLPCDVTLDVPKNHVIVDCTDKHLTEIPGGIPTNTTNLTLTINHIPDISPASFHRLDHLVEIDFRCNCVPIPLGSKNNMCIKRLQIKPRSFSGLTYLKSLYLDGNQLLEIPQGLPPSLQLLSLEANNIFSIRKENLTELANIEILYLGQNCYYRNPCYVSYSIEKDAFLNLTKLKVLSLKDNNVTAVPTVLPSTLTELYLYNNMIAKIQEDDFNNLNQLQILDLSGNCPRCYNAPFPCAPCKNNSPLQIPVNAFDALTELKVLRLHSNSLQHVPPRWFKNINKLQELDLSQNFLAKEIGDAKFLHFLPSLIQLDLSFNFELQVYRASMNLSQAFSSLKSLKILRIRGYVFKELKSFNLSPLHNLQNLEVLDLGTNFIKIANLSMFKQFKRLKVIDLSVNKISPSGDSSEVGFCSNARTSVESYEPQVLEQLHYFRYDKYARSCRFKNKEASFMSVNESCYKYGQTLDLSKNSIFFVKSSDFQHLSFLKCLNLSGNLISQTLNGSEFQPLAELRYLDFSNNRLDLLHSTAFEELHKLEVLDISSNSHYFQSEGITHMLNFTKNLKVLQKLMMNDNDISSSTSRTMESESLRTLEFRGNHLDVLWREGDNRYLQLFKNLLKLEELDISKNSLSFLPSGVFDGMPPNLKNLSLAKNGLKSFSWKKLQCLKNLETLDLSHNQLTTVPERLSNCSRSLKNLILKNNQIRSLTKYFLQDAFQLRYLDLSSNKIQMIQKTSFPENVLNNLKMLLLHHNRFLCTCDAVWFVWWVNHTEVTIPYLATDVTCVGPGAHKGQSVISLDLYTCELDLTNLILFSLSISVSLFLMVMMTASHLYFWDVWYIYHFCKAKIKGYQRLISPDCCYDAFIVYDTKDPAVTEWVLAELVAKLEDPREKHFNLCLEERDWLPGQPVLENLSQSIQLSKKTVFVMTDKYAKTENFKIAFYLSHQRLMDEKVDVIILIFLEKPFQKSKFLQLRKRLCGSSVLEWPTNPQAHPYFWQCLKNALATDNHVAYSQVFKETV
assay_explanation: TLR7 cellular reporter assay (HEK293, NFκB-luc)
Assay type: cell-based
protocol_conditions: HEK293 cells transfected with CMV-TLR7 and NFκB-luc, 6 hours incubation; lowest effective concentration
Assign class by TLR7 LEC: not lower than 0.07 µM means 1 (yes); lower than 0.07 µM means 0 (no).

CCCCNc1nc(N)nc2ccn(CCOC)c12
1 (yes)
CCCCNc1nc(N)nc2ccn(Cc3cccc4c3OCCO4)c12
0 (no)
CCCCNc1nc(N)nc2ccn(Cc3cccc4c3OCC4)c12
0 (no)
COCCNc1nc(N)nc2ccn(Cc3ccccc3OC)c12
0 (no)
Cc1cc(CNc2nc(N)nc3ccn(Cc4ccccc4)c23)no1
0 (no)
CCCCNc1nc(N)nc2cc(C)n(Cc3ccccc3)c12
1 (yes)
CCCCNc1nc(N)nc2ccn(Cc3ccc(OC)cc3)c12
1 (yes)
COCCNc1nc(N)nc2ccn(Cc3ccc(C(F)(F)F)cn3)c12
1 (yes)
CCCCNc1nc(N)nc2ccn(CCn3cccc3)c12
1 (yes)
COCCNc1nc(N)nc2ccn(Cc3cccc4c3OCCO4)c12
0 (no)
COCCNc1nc(N)nc2ccn(Cc3ccncc3)c12
1 (yes)
Cc1cc(CNc2nc(N)nc3ccn(Cc4ccccn4)c23)nn1C
1 (yes)
CCCCNc1nc(N)nc2cc(F)n(Cc3ccccc3)c12
1 (yes)
CCCCNc1nc(N)nc2ccn(Cc3cc(OC4CCOC4)c(OC)cn3)c12 (centres unmarked)
1 (yes)
COCCn1ccc2nc(N)nc(NC(C)c3cccnc3)c21 (centres unmarked)
1 (yes)
CCCC[C@@H](CCO)Nc1nc(N)nc2ccn(Cc3cscn3)c12
0 (no)
CCCCNc1nc(N)nc2ccn(Cc3ccccc3OC(F)F)c12
0 (no)
CC(C)=CCNc1nc(N)nc2ccn(Cc3ccccc3)c12
1 (yes)

====

measured_on: human TLR8 (Homo sapiens)
Construct: expressed in transfected cells; host or cells: HEK293 cells, transient transfection with TLR8 plasmid and NFκB-luc plasmid
Sequence (Q9NR97 27-1041): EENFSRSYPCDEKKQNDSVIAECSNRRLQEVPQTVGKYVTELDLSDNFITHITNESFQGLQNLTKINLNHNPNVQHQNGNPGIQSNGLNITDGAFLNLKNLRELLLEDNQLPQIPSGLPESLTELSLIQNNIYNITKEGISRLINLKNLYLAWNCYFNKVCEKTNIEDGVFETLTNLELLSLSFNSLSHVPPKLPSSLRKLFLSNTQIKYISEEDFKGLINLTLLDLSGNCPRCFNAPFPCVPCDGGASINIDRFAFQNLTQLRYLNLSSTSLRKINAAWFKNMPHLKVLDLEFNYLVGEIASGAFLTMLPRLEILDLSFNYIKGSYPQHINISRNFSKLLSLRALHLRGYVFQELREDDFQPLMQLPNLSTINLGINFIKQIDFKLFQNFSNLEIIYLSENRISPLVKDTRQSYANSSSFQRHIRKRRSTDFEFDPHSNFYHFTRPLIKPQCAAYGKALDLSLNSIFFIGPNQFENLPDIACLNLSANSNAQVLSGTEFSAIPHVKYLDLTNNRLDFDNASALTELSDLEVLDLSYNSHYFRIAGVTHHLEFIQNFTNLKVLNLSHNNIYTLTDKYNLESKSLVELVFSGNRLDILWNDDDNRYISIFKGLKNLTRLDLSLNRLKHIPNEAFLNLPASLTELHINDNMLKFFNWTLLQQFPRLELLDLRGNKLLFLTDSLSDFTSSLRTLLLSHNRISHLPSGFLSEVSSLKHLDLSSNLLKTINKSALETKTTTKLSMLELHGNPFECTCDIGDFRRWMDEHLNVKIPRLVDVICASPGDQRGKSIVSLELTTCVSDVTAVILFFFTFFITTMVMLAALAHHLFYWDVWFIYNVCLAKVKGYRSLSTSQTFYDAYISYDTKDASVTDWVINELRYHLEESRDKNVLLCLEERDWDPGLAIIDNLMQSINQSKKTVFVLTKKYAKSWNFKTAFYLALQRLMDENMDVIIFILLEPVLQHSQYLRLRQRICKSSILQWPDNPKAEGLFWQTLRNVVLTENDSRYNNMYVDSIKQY
assay_explanation: TLR8 cellular reporter assay (HEK293, NFκB-luc)
Type: cell-based
protocol_conditions: HEK293 cells transfected with CMV-TLR8 and NFκB-luc, 6 hours incubation; lowest effective concentration
Catalogue of TLR8 LEC readings, one per entry.
measured_quantity: TLR8 LEC (µM)

CCC[C@@H](CCO)Nc1nc(N)nc2ccn(CC3CCCO3)c12 (some centres unmarked)
4.46
CCCCNc1nc(N)nc2ccn(CCn3cccc3)c12
3.96

====

measured_on: human TLR7 (Homo sapiens, UniProt Q9NYK1)
Construct: expressed in transfected cells; host or cells: HEK293 cells, transient transfection with CMV-TLR7 plasmid and NFκB-luc plasmid
Sequence (Q9NYK1 27-1049): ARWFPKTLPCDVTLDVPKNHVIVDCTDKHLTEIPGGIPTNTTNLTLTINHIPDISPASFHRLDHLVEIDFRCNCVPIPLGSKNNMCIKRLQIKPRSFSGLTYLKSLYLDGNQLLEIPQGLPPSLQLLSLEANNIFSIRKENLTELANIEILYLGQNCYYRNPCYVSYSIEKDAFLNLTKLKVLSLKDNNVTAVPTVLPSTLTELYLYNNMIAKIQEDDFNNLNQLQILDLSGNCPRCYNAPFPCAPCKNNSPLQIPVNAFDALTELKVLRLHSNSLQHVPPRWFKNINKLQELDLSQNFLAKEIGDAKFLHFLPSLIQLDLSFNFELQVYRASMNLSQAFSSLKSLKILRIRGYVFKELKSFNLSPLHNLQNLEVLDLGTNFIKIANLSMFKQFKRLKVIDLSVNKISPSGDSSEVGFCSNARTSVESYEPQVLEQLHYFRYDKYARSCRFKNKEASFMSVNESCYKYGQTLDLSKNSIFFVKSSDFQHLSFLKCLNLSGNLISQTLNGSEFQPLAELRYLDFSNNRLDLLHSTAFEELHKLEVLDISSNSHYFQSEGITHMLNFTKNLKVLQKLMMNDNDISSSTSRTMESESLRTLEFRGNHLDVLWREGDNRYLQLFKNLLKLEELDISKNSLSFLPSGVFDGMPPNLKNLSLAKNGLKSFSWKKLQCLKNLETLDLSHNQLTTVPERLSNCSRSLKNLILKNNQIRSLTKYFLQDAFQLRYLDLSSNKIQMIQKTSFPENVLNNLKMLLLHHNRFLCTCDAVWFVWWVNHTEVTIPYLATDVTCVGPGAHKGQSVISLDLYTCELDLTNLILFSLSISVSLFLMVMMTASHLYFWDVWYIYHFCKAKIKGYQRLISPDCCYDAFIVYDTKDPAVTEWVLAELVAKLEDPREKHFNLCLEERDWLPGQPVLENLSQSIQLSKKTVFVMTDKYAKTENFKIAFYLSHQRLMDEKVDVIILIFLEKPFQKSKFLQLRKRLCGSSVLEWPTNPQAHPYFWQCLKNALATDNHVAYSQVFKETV
assay_explanation: TLR7 cellular reporter assay (HEK293, NFκB-luc)
Format: cell-based
protocol_conditions: HEK293 cells transfected with CMV-TLR7 and NFκB-luc, 6 hours incubation; lowest effective concentration
Experimental: The ability of compounds to activate human TLR7 and/or TLR8 was assessed in a cellular reporter assay using HEK293 cells transiently transfected with a TLR7 or TLR8 expression vector and NFκB-luc reporter construct. Briefly, HEK293 cells were grown in culture medium (DMEM supplemented with 10% FCS and 2 mM Glutamine). […] Thirty microliters of cells were then dispensed into each well in 384-well plates, where 10 μL of compound in 4% DMSO was already present. […]
measured_quantity: TLR7 LEC (µM)

COCCNc1nc(N)nc2ccn(Cc3ncccc3OC)c12
0.241
COCCNc1nc(N)nc2ccn(Cc3cscn3)c12
5.99
Cc1cc(CNc2nc(N)nc3ccn(Cc4cccc(Cl)n4)c23)no1
0.05
CCCC[C@@H](CCO)Nc1nc(N)nc2c(F)cn(Cc3ccccc3)c12
0.01
CCCC(C)Nc1nc(N)nc2ccn(Cc3ccccc3F)c12 (centres unmarked)
0.10
CCC[C@H](CO)Nc1nc(N)nc2ccn(Cc3ccccc3)c12
0.22
CCCCNc1nc(N)nc2ccn(CC3CC3)c12
0.38
CCC[C@@H](CCO)Nc1nc(N)nc2ccn(Cc3ccccn3)c12
0.02
CCCNc1nc(N)nc2ccn(Cc3ccccc3)c12
0.83
CCCC[C@@H](CCO)Nc1nc(N)nc2ccn(Cc3ccc(OC)cc3)c12
0.008
Cc1cc(CNc2nc(N)nc3ccn(Cc4ccc5cccnc5n4)c23)no1
0.59
Cn1cc(CNc2nc(N)nc3ccn(Cc4ccccn4)c23)nn1
11.3
COCCNc1nc(N)nc2ccn(Cc3ccncc3OC)c12
0.172
CCCCNc1nc(N)nc2ccn(Cc3cc4ccccc4cn3)c12
1.01
CCC[C@@H](CO)Nc1nc(N)nc2ccn(Cc3cccnn3)c12
5.84
CCCCNc1nc(N)nc2ccn(Cc3ccc(F)cc3)c12
0.28
CCCCNc1nc(N)nc2c(F)cn(Cc3ccccc3)c12
0.26
CCCC[C@@H](CCO)Nc1nc(N)nc2ccn(Cc3ccncc3)c12
0.12
CCCC[C@@H](CCO)Nc1nc(N)nc2ccn(CC3CCCO3)c12 (some centres unmarked)
0.05
COc1cc(OC)nc(Cn2ccc3nc(N)nc(NCc4ncc(C)o4)c32)n1
0.02
